Below, each entry is listed with its recorded IC50.
ASSAY SYSTEM: hBuChE (Homo sapiens, UniProt P06276)
EXPERIMENTAL DETAILS: Cholinesterase inhibitory activity (DTNB/BTC), hBuChE
Type: biochemical
CONDITION: mean ± SEM
RECORDED METRIC: IC50

{"MOLECULE": "CCN(CC)Cc1ccccc1CNC(=O)c1cccc(NC(=O)c2ccc[nH]2)c1 [Compound 5]", "OBSERVED MEASUREMENT": "2.99 nM"}
{"MOLECULE": "CCN(CC)Cc1ccccc1CNC(=O)c1cccc(NC(=O)c2ccc(C)cc2)c1 [Compound 22]", "OBSERVED MEASUREMENT": "1.54 nM"}
{"MOLECULE": "CCN(CC)Cc1ccccc1CNC(=O)c1cccc(NC(=O)c2ccc(Br)cc2)c1 [Compound 20]", "OBSERVED MEASUREMENT": "1.91 nM"}
{"MOLECULE": "CCN(CC)Cc1ccccc1CNC(=O)c1cccc(NC(=O)c2ccc(C(F)(F)F)cc2)c1 [Compound 25]", "OBSERVED MEASUREMENT": "1.41 nM"}
{"MOLECULE": "CCCN(CCC)Cc1ccccc1CNC(=O)c1cccc(NC(=O)c2cccs2)c1 [Compound 35]", "OBSERVED MEASUREMENT": "0.89 nM"}

###

Test system: PC-12 neural cell line
EXPERIMENTAL DETAILS: Toxicity test in PC-12 nerve cell (MTT)
Format: cell-based
CONDITION: PC-12 cells, 20 μM compound for 24 h
Each item that follows carries a reported SR(%) cell survival rate, 20 μM.

{"STRUCTURE NOTATION": "CCCN(CCC)Cc1ccccc1CNC(=O)c1cccc(NC(=O)c2cccs2)c1", "SR(%) cell survival rate, 20 μM": 92.58}
{"STRUCTURE NOTATION": "CCN(CC)Cc1ccccc1CNC(=O)c1cccc(NC(=O)c2ccccn2)c1", "SR(%) cell survival rate, 20 μM": 92.36}
{"STRUCTURE NOTATION": "CCN(CC)Cc1ccccc1CNC(=O)c1cccc(NC(=O)c2ccc(C)c(C)c2)c1", "SR(%) cell survival rate, 20 μM": 85.05}
{"STRUCTURE NOTATION": "CCN(CC)Cc1ccccc1CNC(=O)c1cccc(NC(=O)c2cccs2)c1", "SR(%) cell survival rate, 20 μM": 97.36}
{"STRUCTURE NOTATION": "CCN(CC)Cc1ccccc1CNC(=O)c1cccc(NC(=O)c2ccc(Cl)cc2)c1", "SR(%) cell survival rate, 20 μM": 90.43}
{"STRUCTURE NOTATION": "O=C(NCc1ccccc1)c1cccc(NC(=O)c2cccs2)c1", "SR(%) cell survival rate, 20 μM": 89.57}
{"STRUCTURE NOTATION": "CCN(CC)Cc1ccccc1CNC(=O)c1cccc(NC(=O)c2ccc(C(=O)O)cc2)c1", "SR(%) cell survival rate, 20 μM": 91.46}
{"STRUCTURE NOTATION": "CCN(CC)Cc1ccccc1CNC(=O)c1cccc(NC(=O)c2ccc(C)cc2)c1", "SR(%) cell survival rate, 20 μM": 93.35}
{"STRUCTURE NOTATION": "CCN(CC)Cc1ccccc1CNC(=O)c1cccc(NC(=O)c2ccc(OC)cc2)c1", "SR(%) cell survival rate, 20 μM": 97.20}
{"STRUCTURE NOTATION": "CCN(CC)Cc1ccccc1CNC(=O)c1cccc(NC(=O)c2ccc(F)cc2)c1", "SR(%) cell survival rate, 20 μM": 93.57}
{"STRUCTURE NOTATION": "CCN(CC)Cc1cccc(CNC(=O)c2cccc(NC(=O)c3cccs3)c2)c1", "SR(%) cell survival rate, 20 μM": 92.05}
{"STRUCTURE NOTATION": "CCN(CC)Cc1ccc(CNC(=O)c2cccc(NC(=O)c3cccs3)c2)cc1", "SR(%) cell survival rate, 20 μM": 93.67}
{"STRUCTURE NOTATION": "CCN(CC)Cc1ccccc1CNC(=O)c1cccc(NC(=O)c2ccc(C(F)(F)F)cc2)c1", "SR(%) cell survival rate, 20 μM": 97.58}
{"STRUCTURE NOTATION": "CCN(CC)Cc1ccccc1CNC(=O)c1cccc(NC(=O)c2ccc(O)cc2)c1", "SR(%) cell survival rate, 20 μM": 91.46}
{"STRUCTURE NOTATION": "CCN(CC)Cc1ccccc1CNC(=O)c1cccc(NC(=O)C2CCCCC2)c1", "SR(%) cell survival rate, 20 μM": 90.23}
{"STRUCTURE NOTATION": "CCN(CC)Cc1ccccc1CNC(=O)c1cccc(NC(=O)c2ccc(C(C)=O)cc2)c1", "SR(%) cell survival rate, 20 μM": 91.86}
{"STRUCTURE NOTATION": "CCN(CC)Cc1ccccc1CNC(=O)c1cccc(NC(=O)c2ccc(F)c(F)c2)c1", "SR(%) cell survival rate, 20 μM": 95.72}
{"STRUCTURE NOTATION": "CCN(CC)Cc1ccccc1CNC(=O)c1cccc(NC(=O)c2ccc([N+](=O)[O-])cc2)c1", "SR(%) cell survival rate, 20 μM": 97.42}
{"STRUCTURE NOTATION": "CCN(CC)Cc1ccccc1CNC(=O)c1cccc(NC(=O)c2ccccc2F)c1", "SR(%) cell survival rate, 20 μM": 80.26}
